Test: Cytotoxicity against human myeloid progenitor cells after 14 to 16 days
Assign IC50 to each entry below.

Problem: Using known records, supply IC50 for C[C@H](NP(=O)(OC[C@H]1O[C@@H](n2ccc(=O)[nH]c2=O)[C@](C)(F)[C@@H]1O)Oc1ccc(F)cc1)C(=O)OC1CCCCC1 (stereo partly drawn)
Solution: 30 µM

Problem: Using known records, supply IC50 for CC(C)OC(=O)[C@H](C)NP(=O)(OC[C@H]1O[C@@H](n2ccc(=O)[nH]c2=O)[C@](C)(F)[C@@H]1O)Oc1ccccc1 (stereo partly drawn)
Solution: > 50 µM

Problem: Using known records, supply IC50 for COC(=O)[C@H](C)NP(=O)(OC[C@H]1O[C@@H](n2ccc(=O)[nH]c2=O)[C@](C)(F)[C@@H]1O)Oc1ccccc1 (stereo partly drawn)
Solution: > 50 µM

----------
Experiment: AUC (0 to t) in cynomolgus monkey plasma at 50 mg/kg, po qd for 4 days
Type: ADME, organism-based, Macaca fascicularis
Parameters: dose 50 mg/kg, route oral
Assign AUC(0-t) at 96 h to each entry below.
Report the value in ng·h/mL with no unit label.

Problem: Using known records, supply AUC(0-t) at 96 h for CC(C)OC(=O)[C@H](C)NP(=O)(OC[C@H]1O[C@@H](n2ccc(=O)[nH]c2=O)[C@](C)(F)[C@@H]1O)Oc1ccccc1 (some centres not stated)
Solution: 86

Problem: Using known records, supply AUC(0-t) at 96 h for COC(=O)[C@H](C)NP(=O)(OC[C@H]1O[C@@H](n2ccc(=O)[nH]c2=O)[C@](C)(F)[C@@H]1O)Oc1ccccc1 (some centres not stated)
Solution: 27

----------
Test: AUC (0 to t) in dog plasma at 50 mg/kg, po qd for 4 days
Type: ADME, organism-based, Canis lupus familiaris
Set-up: dose 50 mg/kg, route oral
Assign AUC(0-t) at 96 h to each entry below.
Report the value in ng·h/mL with no unit label.

Problem: Using known records, supply AUC(0-t) at 96 h for COC(=O)[C@H](C)NP(=O)(OC[C@H]1O[C@@H](n2ccc(=O)[nH]c2=O)[C@](C)(F)[C@@H]1O)Oc1ccccc1 (stereo partly drawn)
Solution: 418

Problem: Using known records, supply AUC(0-t) at 96 h for CC(C)OC(=O)[C@H](C)NP(=O)(OC[C@H]1O[C@@H](n2ccc(=O)[nH]c2=O)[C@](C)(F)[C@@H]1O)Oc1ccccc1 (stereo partly drawn)
Solution: 6890

Problem: Using known records, supply AUC(0-t) at 96 h for C[C@H](NP(=O)(OC[C@H]1O[C@@H](n2ccc(=O)[nH]c2=O)[C@](C)(F)[C@@H]1O)Oc1ccc(F)cc1)C(=O)OC1CCCCC1 (stereo partly drawn)
Solution: 54

----------
Assign Papp to each entry below.
Assay: Permeability by PAMPA assay
Assay type: ADME
Conditions: read-out: permeability
Report the value in ×10⁻⁶ cm/s with no unit label.

Problem: Using known records, supply Papp for COC(=O)[C@H](C)NP(=O)(OC[C@H]1O[C@@H](n2ccc(=O)[nH]c2=O)[C@](C)(F)[C@@H]1O)Oc1ccccc1 (stereo partly drawn)
Solution: 0.007

Problem: Using known records, supply Papp for CC(C)OC(=O)[C@H](C)NP(=O)(OC[C@H]1O[C@@H](n2ccc(=O)[nH]c2=O)[C@](C)(F)[C@@H]1O)Oc1ccccc1 (stereo partly drawn)
Solution: 0.046

Problem: Using known records, supply Papp for C[C@H](NP(=O)(OC[C@H]1O[C@@H](n2ccc(=O)[nH]c2=O)[C@](C)(F)[C@@H]1O)Oc1ccc(F)cc1)C(=O)OC1CCCCC1 (stereo partly drawn)
Solution: 0.488
